- testedTarget: TtCoAT·ADLP complex (NAD(H) site in ADLP) (Thermus thermophilus, UniProt Q72IQ0)
- protocolSummary: isothermal titration calorimetry
recordedEndpoint: pKd
// pKd here means minus log10 of the molar concentration (mol/L)

compound	testedTarget	pKd
NC(=O)C1=CN([C@@H]2O[C@H](COP(=O)(O)OP(=O)(O)OC[C@H]3O[C@@H](n4cnc5c(N)ncnc54)[C@H](O)[C@@H]3O)[C@@H](O)[C@H]2O)C=CC1 [NADH]	TtCoAT·ADLP complex (NAD(H) site in ADLP) (Thermus thermophilus, UniProt Q72IQ0)	6.47

API: the following record is the query input.
Reported pKd of NC(=O)c1ccc[n+]([C@@H]2O[C@H](COP(=O)(O)OP(=O)(O)OC[C@H]3O[C@@H](n4cnc5c(N)ncnc54)[C@H](O)[C@@H]3O)[C@@H](O)[C@H]2O)c1 [NAD^+] : 5.51
